Reference source: paper PMC9721025

assay-name: Pharmacokinetics in beagles, multiple-dose regimen (once per day for 7 days) of TRQI or TRQC, plasma LC-MS/MS
Format: in vivo
condition-label: male, beagle, dog, po, 0.09 g/kg, TRQC 0.09 g/kg for 7 days, beagle No. 3
Description: 100 μL plasma sample was drawn and transferred to 1.5 mL centrifuge tube prior to 300 μL protein precipitant (3:1 [v/v] methanol/acetonitrile, containing 0.1% formic acid and 100 ng/mL IS) was added, and then the sample was vortex-mixed for 3 min. The mixture was centrifuged at 20,000 ×g for 10 min, and 100 μL supernatant was transferred to the injection vial and analyzed directly by LC–MS/MS. […]
assay-metric: AUC(0-inf) (ng·h/mL)

>  <molecule>
O=C(O)[C@H]1O[C@@H](Oc2cc3oc(-c4ccccc4)cc(=O)c3c(O)c2O)[C@H](O)[C@@H](O)[C@@H]1O [Baicalin, baicalin]

>  <AUC(0-inf), ng·h/mL>
74.3

$$$$

A. C[C@H](CCC(=O)O)[C@H]1CC[C@H]2[C@@H]3[C@@H](O)C[C@@H]4C[C@H](O)CC[C@]4(C)[C@H]3CC[C@]12C [Ursodeoxycholic acid, ursodeoxycholic acid]
B. O=C(/C=C/c1ccc(O)c(O)c1)O[C@@H]1C[C@](O)(C(=O)O)C[C@@H](O)[C@H]1O [Chlorogenic acid, chlorogenic acid]
C. C[C@H](CCC(=O)O)[C@H]1CC[C@H]2[C@@H]3[C@H](O)C[C@@H]4C[C@H](O)CC[C@]4(C)[C@H]3CC[C@]12C [Chenodeoxycholic acid, chenodeoxycholic acid]
Prompt: Ranking field: AUC(0-inf); order: falling. List labels; respect the requested ordering.
Completion: A, C, B

----------
assay-name: Pharmacokinetics in beagles, multiple-dose regimen (once per day for 7 days) of TRQI or TRQC, plasma LC-MS/MS
Type: in vivo
condition-label: both sexes, beagle, dog, po, TRQC 0.09 g/kg once per day for 7 days, mean
assay-metric: half-life at 7 days (h)

>  <structure>
C[C@H](CCC(=O)O)[C@H]1CC[C@H]2[C@@H]3[C@@H](O)C[C@@H]4C[C@H](O)CC[C@]4(C)[C@H]3CC[C@]12C

>  <recorded-value>
12

$$$$
>  <structure>
O=C(O)[C@H]1O[C@@H](Oc2cc3oc(-c4ccccc4)cc(=O)c3c(O)c2O)[C@H](O)[C@@H](O)[C@@H]1O

>  <recorded-value>
12.1

$$$$

I. O=C(/C=C/c1ccc(O)c(O)c1)O[C@@H]1C[C@](O)(C(=O)O)C[C@@H](O)[C@H]1O
II. C[C@H](CCC(=O)O)[C@H]1CC[C@H]2[C@@H]3[C@H](O)C[C@@H]4C[C@H](O)CC[C@]4(C)[C@H]3CC[C@]12C
Prompt: Identify the entry with the larger half-life at 7 days. Options: I and II Output the label that corresponds to your choice.
Completion: II

----------
assay-name: Pharmacokinetics in beagles, single-dose regimen of TRQI (i.v.) or TRQC (oral), plasma LC-MS/MS
Format: in vivo, beagle
condition-label: both sexes, beagle, dog, plasma, po, 0.09 g/kg, single TRQCs 0.09 g/kg; Mean; read-out: AUC0–24 h
assay-metric: AUC(0-t) (ng·h/mL)

Solved cases below.
>  <structure>
O=C(/C=C/c1ccc(O)c(O)c1)O[C@@H]1C[C@](O)(C(=O)O)C[C@@H](O)[C@H]1O

>  <AUC(0-t) (ng·h/mL)>
29.1

$$$$
>  <structure>
O=C(O)[C@H]1O[C@@H](Oc2cc3oc(-c4ccccc4)cc(=O)c3c(O)c2O)[C@H](O)[C@@H](O)[C@@H]1O

>  <AUC(0-t) (ng·h/mL)>
14.1

$$$$

1. C[C@H](CCC(=O)O)[C@H]1CC[C@H]2[C@@H]3[C@@H](O)C[C@@H]4C[C@H](O)CC[C@]4(C)[C@H]3CC[C@]12C
2. C[C@H](CCC(=O)O)[C@H]1CC[C@H]2[C@@H]3[C@H](O)C[C@@H]4C[C@H](O)CC[C@]4(C)[C@H]3CC[C@]12C
Prompt: Please indicate which item has the smaller measured AUC(0-t): 1 versus 2 Output the label that corresponds to your choice.
Completion: 2
(2: 553 ng·h/mL, 1: 4400 ng·h/mL)
